We begin with a simple list: items and their reported MIC.
- Test system: Aspergillus niger
- protocol description: Antifungal activity against Aspergillus niger MTCC 282
- Format: functional

Example entries and their recorded answers appear below.
Cc1ccc(-[n+]2noc([O-])c2CN2CCN(C3=Nc4ccccc4Sc4ccccc43)CC2)cc1 | 1000 µg/mL
Cc1ccc(-[n+]2noc([O-])c2CN2CCN(c3cccc(Cl)c3Cl)CC2)cc1 | 500 µg/mL
Cc1ccc(-[n+]2noc([O-])c2CN2CCN(c3cccc(Cl)c3)CC2)cc1 | 500 µg/mL
Cc1ccc(-[n+]2noc([O-])c2CN2CCNCC2)cc1 | 200 µg/mL
Cc1ccc(-[n+]2noc([O-])c2CN2CCN(C)C(c3ccccc3)C2)cc1 (configuration not stated) | 1000 µg/mL
[O-]c1on[n+](-c2ccc(Cc3ccc(-[n+]4noc([O-])c4CN4CCOCC4)cc3)cc2)c1CN1CCOCC1 | 250 µg/mL
CN1CCN(Cc2c([O-])on[n+]2-c2ccc(Cc3ccc(-[n+]4noc([O-])c4CN4CCN(C)C(c5ccccc5)C4)cc3)cc2)CC1c1ccccc1 (configuration not stated) | 1000 µg/mL
[O-]c1on[n+](-c2ccc(Cc3ccc(-[n+]4noc([O-])c4CN4CCN(c5ccccc5)CC4)cc3)cc2)c1CN1CCN(c2ccccc2)CC1 | 1000 µg/mL

Inquiry: Record [O-]c1on[n+](-c2ccc(Cc3ccc(-[n+]4noc([O-])c4CN4CCCCC4)cc3)cc2)c1CN1CCCCC1 : what is its MIC with Aspergillus niger?
Reply text: 250 µg/mL

----------
We begin with a simple list: items and their reported CC50.
- protocol description: Cytotoxicity against human HEL cells
- Type: cell-based

Cc1ccc(-[n+]2noc([O-])c2CN2CCNCC2)cc1 | 46 µg/mL
CN1CCN(Cc2c([O-])on[n+]2-c2ccc(Cc3ccc(-[n+]4noc([O-])c4CN4CCN(C)C(c5ccccc5)C4)cc3)cc2)CC1c1ccccc1 (stereo not drawn) | 36.8 µg/mL
[O-]c1on[n+](-c2ccc(Cc3ccc(-[n+]4noc([O-])c4CN4CCNCC4)cc3)cc2)c1CN1CCNCC1 | 20 µg/mL
CC(=O)N1CCN(Cc2c([O-])on[n+]2-c2ccc(C)cc2)CC1 | 24.9 µg/mL
Cc1ccc(-[n+]2noc([O-])c2CN2CCN(C)C(c3ccccc3)C2)cc1 (stereo not drawn) | 23.7 µg/mL

Inquiry: For [O-]c1on[n+](-c2ccc(Cc3ccc(-[n+]4noc([O-])c4CN4CCN(c5ccccc5)CC4)cc3)cc2)c1CN1CCN(c2ccccc2)CC1 , what is its reported CC50?
Reply text: 12 µg/mL

Inquiry: Next entry: Cc1ccc(-[n+]2noc([O-])c2CN2CCN(c3cccc(Cl)c3Cl)CC2)cc1
Reply text: 28.8 µg/mL

Inquiry: Next entry: Cc1ccc(-[n+]2noc([O-])c2CN2CCCCC2)cc1
Reply text: 28.5 µg/mL

----------
We begin with a simple list: items and their reported MCC.
- protocol description: Cytotoxicity against human HEL cells assessed as alteration in cell morphology
- Type: cell-based
Return type: number; implicit unit µg/mL.

CN1CCN(Cc2c([O-])on[n+]2-c2ccc(Cc3ccc(-[n+]4noc([O-])c4CN4CCN(C)C(c5ccccc5)C4)cc3)cc2)CC1c1ccccc1 (stereo not drawn) | 100

Inquiry: For Cc1ccc(-[n+]2noc([O-])c2CN2CCN(c3ccccc3)CC2)cc1 , what is its reported MCC?
Reply text: 100

Inquiry: Next entry: Cc1ccc(-[n+]2noc([O-])c2CN2CCN(C)CC2)cc1
Reply text: 100

----------
- Tested on: Cytomegalovirus
- protocol description: Antiviral activity against Cytomegalovirus Davis in HEL cells assessed as reduction in plaque formation
- Type: functional, organism-based
- experimental conditions: Human betaherpesvirus 5, Davis
property label: EC50

Example entries and their recorded answers appear below.
Cc1ccc(-[n+]2noc([O-])c2CN2CCN(c3cccc(Cl)c3Cl)CC2)cc1 | > 4 µg/mL
[O-]c1on[n+](-c2ccc(Cc3ccc(-[n+]4noc([O-])c4CN4CCN(c5ccccc5)CC4)cc3)cc2)c1CN1CCN(c2ccccc2)CC1 | > 20 µg/mL

Inquiry: For Cc1ccc(-[n+]2noc([O-])c2CN2CCN(c3cccc(Cl)c3)CC2)cc1 , what is its reported EC50?
Reply text: > 20 µg/mL

Inquiry: Next entry: CC(=O)N1CCN(Cc2c([O-])on[n+]2-c2ccc(C)cc2)CC1
Reply text: > 20 µg/mL

Inquiry: Next entry: Cc1ccc(-[n+]2noc([O-])c2CN2CCCCC2)cc1
Reply text: > 20 µg/mL

----------
We begin with a simple list: items and their reported MIC.
- Test system: Candida albicans
- protocol description: Antifungal activity against Candida albicans MTCC 227
- Format: functional
Return type: number; implicit unit µg/mL.

[O-]c1on[n+](-c2ccc(Cc3ccc(-[n+]4noc([O-])c4CN4CCNCC4)cc3)cc2)c1CN1CCNCC1 | 1000
Cc1ccc(-[n+]2noc([O-])c2CN2CCN(c3cccc(Cl)c3Cl)CC2)cc1 | 250
Cc1ccc(-[n+]2noc([O-])c2CN2CCN(c3cccc(Cl)c3)CC2)cc1 | 200

Inquiry: For CN1CCN(Cc2c([O-])on[n+]2-c2ccc(Cc3ccc(-[n+]4noc([O-])c4CN4CCN(C)C(c5ccccc5)C4)cc3)cc2)CC1c1ccccc1 (stereo not drawn) , what is its reported MIC?
Reply text: 500

Inquiry: Next entry: [O-]c1on[n+](-c2ccc(Cc3ccc(-[n+]4noc([O-])c4CN4CCN(c5cccc(Cl)c5Cl)CC4)cc3)cc2)c1CN1CCN(c2cccc(Cl)c2Cl)CC1
Reply text: 1000

Inquiry: Next entry: CN1CCN(Cc2c([O-])on[n+]2-c2ccc(Cc3ccc(-[n+]4noc([O-])c4CN4CCN(C)CC4)cc3)cc2)CC1
Reply text: 500

Inquiry: Next entry: Cc1ccc(-[n+]2noc([O-])c2CN2CCN(C)C(c3ccccc3)C2)cc1 (stereo not drawn)
Reply text: 200

Inquiry: Next entry: CC(=O)N1CCN(Cc2c([O-])on[n+]2-c2ccc(C)cc2)CC1
Reply text: 200

Inquiry: Next entry: Cc1ccc(-[n+]2noc([O-])c2CN2CCN(C3=Nc4ccccc4Sc4ccccc43)CC2)cc1
Reply text: 1000

Inquiry: Next entry: [O-]c1on[n+](-c2ccc(Cc3ccc(-[n+]4noc([O-])c4CN4CCN(c5ccccc5)CC4)cc3)cc2)c1CN1CCN(c2ccccc2)CC1
Reply text: 250

Inquiry: Next entry: CC(=O)N1CCN(Cc2c([O-])on[n+]2-c2ccc(Cc3ccc(-[n+]4noc([O-])c4CN4CCN(C(C)=O)CC4)cc3)cc2)CC1
Reply text: 250

Inquiry: Next entry: Cc1ccc(-[n+]2noc([O-])c2CN2CCNCC2)cc1
Reply text: 200

Inquiry: Next entry: COC1=CC(=O)C[C@@H](C)[C@]12Oc1c(Cl)c(OC)cc(OC)c1C2=O
Reply text: 100

----------
- System: Human immunodeficiency virus 2
- protocol description: Antiviral activity against HIV2 ROD infected in MT4 cells assessed as inhibition of virus-induced cytopathogenicity by MTT assay
- Format: functional, organism-based
- experimental conditions: Human immunodeficiency virus 2, ISOLATE ROD
property label: IC50

[O-]c1on[n+](-c2ccc(Cc3ccc(-[n+]4noc([O-])c4CN4CCN(c5cccc(Cl)c5)CC4)cc3)cc2)c1CN1CCN(c2cccc(Cl)c2)CC1 | > 13.2 µg/mL
CC(=O)N1CCN(Cc2c([O-])on[n+]2-c2ccc(C)cc2)CC1 | > 17.3 µg/mL
[O-]c1on[n+](-c2ccc(Cc3ccc(-[n+]4noc([O-])c4CN4CCN(c5ccccc5)CC4)cc3)cc2)c1CN1CCN(c2ccccc2)CC1 | > 10.3 µg/mL

Inquiry: For CC(=O)N1CCN(Cc2c([O-])on[n+]2-c2ccc(Cc3ccc(-[n+]4noc([O-])c4CN4CCN(C(C)=O)CC4)cc3)cc2)CC1 , what is its reported IC50?
Reply text: > 12 µg/mL

Inquiry: Next entry: Cc1ccc(-[n+]2noc([O-])c2CN2CCN(c3cccc(Cl)c3)CC2)cc1
Reply text: > 27.4 µg/mL

Inquiry: Next entry: O=c1[nH]cnc2c1ncn2[C@H]1CC[C@@H](CO)O1
Reply text: 3.78 µg/mL

Inquiry: Next entry: [O-]c1on[n+](-c2ccc(Cc3ccc(-[n+]4noc([O-])c4CN4CCNCC4)cc3)cc2)c1CN1CCNCC1
Reply text: > 14 µg/mL

Inquiry: Next entry: Cc1ccc(-[n+]2noc([O-])c2CN2CCN(C3=Nc4ccccc4Sc4ccccc43)CC2)cc1
Reply text: > 13.6 µg/mL

Inquiry: Next entry: Cc1cn([C@H]2C[C@H](N=[N+]=[N-])[C@@H](CO)O2)c(=O)[nH]c1=O
Reply text: 0.00094 µg/mL

Inquiry: Next entry: [O-]c1on[n+](-c2ccc(Cc3ccc(-[n+]4noc([O-])c4CN4CCCCC4)cc3)cc2)c1CN1CCCCC1
Reply text: > 12 µg/mL

Inquiry: Next entry: Cc1ccc(-[n+]2noc([O-])c2CN2CCN(C)C(c3ccccc3)C2)cc1 (stereo not drawn)
Reply text: > 14.4 µg/mL

Inquiry: Next entry: CN1CCN(Cc2c([O-])on[n+]2-c2ccc(Cc3ccc(-[n+]4noc([O-])c4CN4CCN(C)C(c5ccccc5)C4)cc3)cc2)CC1c1ccccc1 (stereo not drawn)
Reply text: > 14 µg/mL

Inquiry: Next entry: Cc1ccc(-[n+]2noc([O-])c2CN2CCN(c3cccc(Cl)c3Cl)CC2)cc1
Reply text: > 31.7 µg/mL
